Assayed system: RBPMS isoform A (Homo sapiens, UniProt Q93062 1-196)
Protocol: EMSA
Endpoint label: binding result

>>> value_observed("AGAGAGAGAGAGAGAGAG (ssRNA) [(AG)9]")
"no binding"
>>> value_observed("AAAAAAAAAAAAAAAAAA (ssRNA) [A18]")
"no binding"
>>> value_observed("GCCGCCGCCGCCGCCGCC (ssRNA) [(GCC)6]")
"no binding"
>>> value_observed("AGGCACUUUCAACUUCACUCC (ssRNA) [ETF1 21-nt wt]")
"binds"

Numbers sourced from paper PMC4114688.
